# test_target: Mitogen-activated protein kinase kinase kinase kinase 1 (Homo sapiens, UniProt Q92918)
# Sequence (Q92918 whole entry): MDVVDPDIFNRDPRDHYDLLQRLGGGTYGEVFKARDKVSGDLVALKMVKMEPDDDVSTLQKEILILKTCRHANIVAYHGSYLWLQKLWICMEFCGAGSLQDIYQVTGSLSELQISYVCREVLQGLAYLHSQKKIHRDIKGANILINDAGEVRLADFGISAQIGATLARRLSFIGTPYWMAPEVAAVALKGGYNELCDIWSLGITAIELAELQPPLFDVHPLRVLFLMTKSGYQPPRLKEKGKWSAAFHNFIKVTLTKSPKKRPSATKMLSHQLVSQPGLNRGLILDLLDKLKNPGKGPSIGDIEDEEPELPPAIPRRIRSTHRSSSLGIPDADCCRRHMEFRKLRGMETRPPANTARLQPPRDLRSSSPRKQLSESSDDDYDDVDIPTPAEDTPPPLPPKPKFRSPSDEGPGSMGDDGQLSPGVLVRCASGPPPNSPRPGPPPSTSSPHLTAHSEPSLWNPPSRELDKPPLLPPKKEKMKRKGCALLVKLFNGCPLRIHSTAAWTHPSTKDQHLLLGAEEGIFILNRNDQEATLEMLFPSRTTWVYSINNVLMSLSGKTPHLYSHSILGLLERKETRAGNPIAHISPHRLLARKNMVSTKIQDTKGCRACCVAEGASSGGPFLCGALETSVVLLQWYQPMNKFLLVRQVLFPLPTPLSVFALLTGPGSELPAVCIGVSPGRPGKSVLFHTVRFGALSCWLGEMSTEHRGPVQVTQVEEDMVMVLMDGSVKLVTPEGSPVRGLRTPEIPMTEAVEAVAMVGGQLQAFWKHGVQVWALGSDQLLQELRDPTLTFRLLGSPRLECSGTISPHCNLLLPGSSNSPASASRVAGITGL
# experimental_details: Inhibition of human HPK1 using myelin basic protein and [gamma33P]ATP as substrate incubated for 40 mins in presence of Mg/ATP by radiometric scintillation counting analysis
readout_label: pIC50
Entry type: numeric. Quantity: pIC50, the -log10 of concentration in molar units.

# count of solved cases: 2
COc1cc2c(cc1Nc1nc(Nc3ccccc3OC)c3cc[nH]c3n1)CN(C)CC2    6.90
CCCN(CCC)S(=O)(=O)c1ccccc1Nc1nc(Nc2cc3c(cc2OC)CCN(C)C3)nc2[nH]ccc12    7.14

Name the reported pIC50 value associated with the compound `CCN(CC)S(=O)(=O)c1ccccc1Nc1nc(Nc2cc3c(cc2OC)CCN(C)C3)nc2[nH]ccc12` 8.15

Name the reported pIC50 value associated with the compound `COc1cc2c(cc1Nc1nc(Nc3ccccc3S(=O)(=O)N3CCOCC3)c3cc[nH]c3n1)CN(C)CC2` 6.46

* * *

# test_target: Mitogen-activated protein kinase kinase kinase kinase 1 (Homo sapiens, UniProt Q92918)
# experimental_details: Inhibition of HPK1 (unknown origin)
readout_label: IC50 (nM)
Numeric only. Scale: nM

Name the reported IC50 value associated with the molecule `Cn1cc(Nc2ncc(C3=CCC[C@@H](NC(=O)c4ccccc4)C3)nc2C(N)=O)cn1` 86

* * *

Measured pIC50 accompanies every entry in the list below.
# test_target: Mitogen-activated protein kinase kinase kinase kinase 1 (Homo sapiens, UniProt Q92918)
# experimental_details: Inhibition of human HPK1 using myelin basic protein and [gamma33P]ATP as substrate incubated for 40 mins in presence of Mg/ATP by radiometric scintillation counting analysis
Entry type: numeric. Quantity: pIC50, the -log10 of concentration in molar units.

Name the reported pIC50 value associated with the compound `COc1cc2c(cc1Nc1nc(Nc3ccccc3S(=O)(=O)N(C)C)c3c(-c4cccnc4)c[nH]c3n1)CN(C(C)C)CC2` 7.92

Name the reported pIC50 value associated with the compound `COc1cc(N2CCOCC2)ccc1Nc1nc(Nc2ccccc2S(=O)(=O)N(C)C)c2c(-c3cccnc3)c[nH]c2n1` 6.11

* * *

# test_target: Mitogen-activated protein kinase kinase kinase kinase 1 (Homo sapiens)
# experimental_details: Inhibition of wild type HPK1 (unknown origin) using FAM-FPQAAsLPPYFAKKK peptide as substrate in presence of ATP by caliper assay
pIC50: −log10 of the molar value.
readout_label: pIC50

Fill in the recorded pIC50 for this molecule, with Mitogen-activated protein kinase kinase kinase kinase 1 (Homo sapiens) as test system: `COc1cc2c(cc1Nc1ncc(Cl)c(Nc3ccccc3P(C)(C)=O)n1)CN(C)CC2` > 8.30

* * *

Measured IC50 accompanies every entry in the list below.
# test_target: Mitogen-activated protein kinase kinase kinase kinase 1 (Homo sapiens)
# experimental_details: Inhibition of human HPK1 using myelin basic protein and [gamma33P]ATP as substrate incubated for 40 mins in presence of Mg/ATP by radiometric scintillation counting analysis
Numeric only. Scale: nM

# count of solved cases: 6
COc1cc2c(cc1Nc1nc(Nc3ccccc3P(C)(C)=O)c3cc[nH]c3n1)CN(C)CC2    7.5
COc1cc2c(cc1Nc1nc(Nc3ccccc3C)c3cc[nH]c3n1)CN(C)CC2    454
COc1cc2c(cc1Nc1nc(Nc3ccccc3S(=O)(=O)N3CCC3)c3c(-c4cccnc4)c[nH]c3n1)CN(C)CC2    45
COc1cc2c(cc1Nc1nc(Nc3ccccc3S(=O)(=O)N(C)C)c3c(-c4c[nH]nc4C)c[nH]c3n1)CN(C)CC2    3.5
COc1cc2c(cc1Nc1nc(Nc3ccccc3S(=O)(=O)N3CCC3)c3cc[nH]c3n1)CN(C)CC2    1
COc1cc2c(cc1Nc1nc(Nc3ccccc3S(=O)(=O)N(C)C)c3c(-c4cccnc4C)c[nH]c3n1)CN(C)CC2    29.5

In the following, a different compound is considered.
Name the reported IC50 value associated with the compound `COc1cc(Nc2nc(Nc3ccccc3S(=O)(=O)N(C)C)c3c(-c4cccnc4)c[nH]c3n2)ccc1N1CCOCC1` 4.5
